Some substances, each annotated with its measured Hypoglycemic.
System: Normal Kunming (KM) mice
Experiment: multiple OGTT (mOGTT): hypoglycemic duration after a single administration
Assay type: in vivo
Conditions: monomeric peptides, single injection at the same dose (1.126 nmol), subcutaneous
Respond with the bare value in days.

| substance | experimental-target | units-label | endpoint-result |
| --- | --- | --- | --- |
| His-βAib-Glu-Gly-Thr-Phe-Thr-Ser-Asp-Val-Cys-Ser-Tyr-Leu-Glu-Gly-Gln-Ala-Ala-Lys[N-ϵ-(N-α-oleoyl-L-γ-glutamyl)]-Glu-Phe-Ile-Ala-Trp-Leu-Val-Arg-Gly-Arg-Gly-NH2 (HXEGTFTSDVCSYLEGQAAXEFIAWLVRGRG; βAib; oleoyl-γ-glutamyl on Lys; C-terminal amide; Sequence is synthesized; (2)..(2) Xaa is bAib; (20)..(20) Xaa is 26Lys[N-e-(N-a-oleoyl-L-g-glutamyl)]; (31)..(31) N-terminal) [G2 series 15] | Normal Kunming (KM) mice | days | 5 |

Then this substance:
(Q) Lab note: need Hypoglycemic with Normal Kunming (KM) mice for entry His-aAib-Glu-Gly-Thr-Phe-Thr-Ser-Asp-Val-Cys-Ser-Tyr-Leu-Glu-Gly-Gln-Ala-Ala-Lys[N-ϵ-(N-α-Palmitoyl)]-Glu-Phe-Ile-Ala-Trp-Leu-Val-Arg-Gly-Arg-Gly-NH2 (HXEGTFTSDVCSYLEGQAAXEFIAWLVRGRG; αAib; palmitoyl on Lys; C-terminal amide; Sequence is synthesized; (2)..(2) Xaa is aAib; (20)..(20) Xaa is 26Lys[N-e-(N-a-palmitoyl-L-g-glutamyl)]; (31)..(31) N-terminal) [G4 series 28] , please look it up.
(A) 7

---

System: Normal Kunming (KM) mice
Assay: multiple OGTT (mOGTT): hypoglycemic duration after a single administration
Type: in vivo
Conditions: monomeric peptides, single injection at the same dose (1.126 nmol), subcutaneous
Non-standard residues stand in square brackets, D forms with d. No end group written: not given here. Aib = CC(C)(N)C(=O)O
observable: Hypoglycemic (days)
All answers are understood in days, so give the number only.

These recorded examples may help you get a feel for the data.
| substance | units-label | Hypoglycemic |
| --- | --- | --- |
| His-aAib-Glu-Gly-Thr-Phe-Thr-Ser-Asp-Val-Ser-Cys-Tyr-Leu-Glu-Gly-Gln-Ala-Ala-Lys[N-ϵ-(N-α-Palmitoyl-L-γ-glutamyl)]-Glu-Phe-Ile-Ala-Trp-Leu-Val-Arg-Gly-Arg-Gly-OH (HXEGTFTSDVSCYLEGQAAXEFIAWLVRGRG; Aib; palmitoyl-gamma-Glu on Lys; C-terminal acid; Sequence is synthesized; (2)..(2) Xaa is aAib; (20)..(20) Xaa 26Lys[N-e-(N-a-palmitoyl-L-g-glutamyl)]; (31)..(31) C-terminal) [G6 series 45] | days | 4 |
| His-aAib-Glu-Gly-Thr-Phe-Thr-Ser-Asp-Val-Ser-Cys-Tyr-Leu-Glu-Gly-Gln-Ala-Ala-Lys-Glu-Phe-Ile-Ala-Trp-Leu-Val-Arg-aAib-Arg-OH (H[Aib]EGTFTSDVSCYLEGQAAKEFIAWLVR[Aib]R-OH; also: disulfide-linked homodimer via Cys) [G7 series 52] | days | 1 |
| His-Ala-Glu-Gly-Thr-Phe-Thr-Ser-Asp-Val-Cys-Ser-Tyr-Leu-Glu-Gly-Gln-Ala-Ala-Lys[N-ϵ-(N-α-oleoyl-L-γ-glutamyl)]-Glu-Phe-Ile-Ala-Trp-Leu-Val-Arg-Gly-Arg-Gly-NH2 (HAEGTFTSDVCSYLEGQAAXEFIAWLVRGRG; oleoyl-γ-glutamyl on Lys; C-terminal amide; Sequence is synthesized; (20)..(20) Xaa is 26Lys[N-e-(N-a-oleoyl-L-g-glutamyl)]; (31)..(31) N-terminal) [G2 series 10] | days | 5 |

(Q) What does the record list as Hypoglycemic for His-aAib-Glu-Gly-Thr-Phe-Thr-Cys-Asp-Val-Ser-Ser-Tyr-Leu-Glu-Gly-Gln-Ala-Ala-Lys[N-ϵ-(N-α-Palmitoyl-γ-glutamyl)]-Glu-Phe-Ile-Ala-Trp-Leu-Val-Arg-Gly-Arg-Gly-NH2 (HXEGTFTCDVSSYLEGQAAXEFIAWLVRGRG; Aib; palmitoyl-gamma-Glu on Lys; C-terminal amide; Sequence is synthesized; (2)..(2) Xaa is aAib; (20)..(20) Xaa is 26Lys[N-e-(N-a-palmitoyl-L-g-glutamyl)]; (31)..(31) N-terminal) [G8 series 61] ?
(A) 4

(Q) Look up Hypoglycemic for this substance: His-aAib-Glu-Gly-Thr-Phe-Thr-Ser-Asp-Val-Cys-Ser-Tyr-Leu-Glu-Gly-Gln-Ala-Ala-Lys[N-ϵ-(N-α-Palmitoyl-γ-glutamyl)]-Glu-Phe-Ile-Ala-Trp-Leu-Val-Arg-Gly-Arg-Gly-NH2 (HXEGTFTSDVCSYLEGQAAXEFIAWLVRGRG; αAib; palmitoyl-γ-glutamyl on Lys; C-terminal amide; Sequence is synthesized; (2)..(2) Xaa is aAib; (20)..(20) Xaa is 26Lys[N-e-(N-a-Palmitoyl-g-glutamyl)]; (31)..(31) N-terminal) [G2 series 12]
(A) 6

src = patent US20240150423A1
